Source: ChEMBL document CHEMBL1139996

Tested on: Oryza sativa
Assay: Inhibition of rice KARI at 200 ppm
inhibition: recorded values
Please give a number only; it is taken to be in %.

COc1ccc(NC(=O)C2(C#N)CC2)cc1
3.95
N#CC1(C(=O)Nc2cccc(Cl)c2)CC1
0
N#CC1(C(=O)O)CC1
100

Let us examine a further case.
Enquiry: Value lookup for inhibition; key = N#CC1(C(=O)Nc2cccc(Br)c2)CC1
Return: 17.2
